- experimental protocol: Cytotoxicity against human KB-V1/Vbl cells after 72 hrs by MTT assay
- Format: functional, cell-based
measured attribute: IC50 (nM)
Please state the figure in nM; there is no need to write the unit.

Guide cases for IC50, answers given:
CN1C/C(=C\c2c(F)cc(F)cc2F)C(=O)/C(=C/c2c(F)cc(F)cc2F)C1    820
O=C(/C=C/c1ccc(S(F)(F)(F)(F)F)cc1)/C=C/c1ccc(S(F)(F)(F)(F)F)cc1    3600

Query: IC50; subject: `O=C1/C(=C/c2ccccc2F)CNC/C1=C\c1ccccc1F`
1100

Would you kindly share the measured IC50 for `CCN1C/C(=C\c2ccc(F)cc2F)C(=O)/C(=C/c2ccc(F)cc2F)C1` ?
1200

Any idea what its IC50 is? The compound is `CCN1C/C(=C\c2c(F)cc(F)cc2F)C(=O)/C(=C/c2c(F)cc(F)cc2F)C1`
1200

---

- experimental protocol: Cytotoxicity against human KB-V1/Vbl cells after 72 hrs by MTT assay
- Format: functional, cell-based
Rule: IC50 below 2000 nM gives yes. Equal to or above 2000 nM gives no.

O=C1/C(=C/c2ccc(F)c(F)c2)CSC/C1=C\c1ccc(F)c(F)c1    yes
CCN1C/C(=C\c2ccccc2F)C(=O)/C(=C/c2ccccc2F)C1    no

Given the entry `O=C1/C(=C/c2ccc(S(F)(F)(F)(F)F)cc2)CCC/C1=C\c1ccc(S(F)(F)(F)(F)F)cc1` , would its reported IC50 be below 2000 nM?
yes

Consider the molecule `CCN1C/C(=C\c2cc(F)c(F)cc2F)C(=O)/C(=C/c2cc(F)c(F)cc2F)C1` . Is its IC50 strictly less than 2000 nM?
yes

Identify whether the molecule `CCN1C/C(=C\c2ccc(S(F)(F)(F)(F)F)cc2)C(=O)/C(=C/c2ccc(S(F)(F)(F)(F)F)cc2)C1` records IC50 below 2000 nM.
yes

Please check: IC50 for `O=C1/C(=C/c2ccc(S(F)(F)(F)(F)F)cc2)CSC/C1=C\c1ccc(S(F)(F)(F)(F)F)cc1` , strictly under 2000 nM or not?
yes

hey, is IC50 for `CN1C/C(=C\c2ccccc2F)C(=O)/C(=C/c2ccccc2F)C1` lower than 2000 nM or not?
yes

Strictly below 2000 nM in IC50? `CN1C/C(=C\c2ccc(F)c(F)c2)C(=O)/C(=C/c2ccc(F)c(F)c2)C1`
yes

Item `CN1C/C(=C\c2cc(F)c(F)cc2F)C(=O)/C(=C/c2cc(F)c(F)cc2F)C1` : IC50 beneath 2000 nM, strictly?
yes

Problem: For the molecule `CCN1C/C(=C\c2cc(F)cc(F)c2)C(=O)/C(=C/c2cc(F)cc(F)c2)C1` , is IC50 under 2000 nM?
no

---

Entries annotated with measured Activity
- Test system: HT-29
- experimental protocol: Cell cycle arrest in human HT-29 cells assessed as accumulation at G2/M phase at 1 uM after 24 hrs by propidium iodide staining based flow cytometric analysis (reference value: 15.5 +/- 0.5%)
- Type: functional
The response must be a number in % with no trailing unit.

In the examples that follow, each entry is paired with its recorded Activity.
CN1C/C(=C\c2c(F)cc(F)cc2F)C(=O)/C(=C/c2c(F)cc(F)cc2F)C1    17.8
CN1C/C(=C\c2cc(F)c(F)cc2F)C(=O)/C(=C/c2cc(F)c(F)cc2F)C1    17.7
O=C1/C(=C/c2ccccc2F)CNC/C1=C\c1ccccc1F    16.6

In the following, a different compound is considered.
Which Activity value is on record for `CCN1C/C(=C\c2ccc(S(F)(F)(F)(F)F)cc2)C(=O)/C(=C/c2ccc(S(F)(F)(F)(F)F)cc2)C1` ?
32.1

---

- System: HT-29
- experimental protocol: Cell cycle arrest in human HT-29 cells assessed as accumulation at G1 phase at 2.5 uM after 24 hrs by propidium iodide staining based flow cytometric analysis (reference value: 68 +/- 0.9%)
- Assay type: functional
measured attribute: Activity (%)
State just the number; it will be interpreted in %.

Please review the following examples before continuing.
CN1C/C(=C\c2c(F)cc(F)cc2F)C(=O)/C(=C/c2c(F)cc(F)cc2F)C1    25.5
CN1C/C(=C\c2cc(F)c(F)cc2F)C(=O)/C(=C/c2cc(F)c(F)cc2F)C1    46.8
CCN1C/C(=C\c2ccc(S(F)(F)(F)(F)F)cc2)C(=O)/C(=C/c2ccc(S(F)(F)(F)(F)F)cc2)C1    43.1

Next compound, Activity to be filled in.
I am curious: what Activity value has been reported for `O=C1/C(=C/c2ccccc2F)CNC/C1=C\c1ccccc1F` ?
38.9

---

- Test system: Gallus gallus
- experimental protocol: Vascular disruptive activity in 6 days post fertilized chicken egg assessed as area covered by blood vessels at 10 nmol administered topically measured after 6 hrs by light microscopic analysis relative to control
- Format: functional
measured attribute: Activity

Name the reported Activity value associated with the compound `CN1C/C(=C\c2cc(F)c(F)cc2F)C(=O)/C(=C/c2cc(F)c(F)cc2F)C1`
44%

---

Listing of entries alongside the reported viability at 24 h, 10 nmol.
- experimental protocol: Cytotoxicity against human U87 cells assessed as cell viability at 10 nmol after 24 hrs by MTT assay relative to control
- Format: cell-based, U-87MG ATCC
- condition set: read-out: Activity

Worked examples, 3 compounds total:
O=C1/C(=C/c2ccccc2F)CNC/C1=C\c1ccccc1F    > 85%
CCN1C/C(=C\c2ccc(S(F)(F)(F)(F)F)cc2)C(=O)/C(=C/c2ccc(S(F)(F)(F)(F)F)cc2)C1    > 85%
CN1C/C(=C\c2cc(F)c(F)cc2F)C(=O)/C(=C/c2cc(F)c(F)cc2F)C1    > 85%

Now look at this one.
// query viability at 24 h, 10 nmol value for entry `CN1C/C(=C\c2c(F)cc(F)cc2F)C(=O)/C(=C/c2c(F)cc(F)cc2F)C1`
> 85%

---

- System: HT-29
- experimental protocol: Cell cycle arrest in human HT-29 cells assessed as accumulation at sub-G1 phase at 2.5 uM after 24 hrs by propidium iodide staining based flow cytometric analysis (reference value: 0.9 +/- 0.1%)
- Format: functional
measured attribute: Activity
Express the reported value numerically, then name its unit.

Can you share its Activity? I mean this compound: `CN1C/C(=C\c2c(F)cc(F)cc2F)C(=O)/C(=C/c2c(F)cc(F)cc2F)C1`
30.1%

Given the compound `CN1C/C(=C\c2cc(F)c(F)cc2F)C(=O)/C(=C/c2cc(F)c(F)cc2F)C1` , what is its reported Activity?
17%

Tell me the measured Activity of `CCN1C/C(=C\c2ccc(S(F)(F)(F)(F)F)cc2)C(=O)/C(=C/c2ccc(S(F)(F)(F)(F)F)cc2)C1` , please.
12.8%

What measured Activity goes with `O=C1/C(=C/c2ccccc2F)CNC/C1=C\c1ccccc1F` ?
12.9%

---

- Test system: KB-V1/Vbl
- experimental protocol: Cytotoxicity against human KB-V1/Vbl cells after 72 hrs by MTT assay
- Assay type: functional, cell-based
measured attribute: Activity

O=C(/C=C/c1ccc(S(F)(F)(F)(F)F)cc1)/C=C/c1ccc(S(F)(F)(F)(F)F)cc1    Dose-dependent effect
CCN1C/C(=C\c2ccccc2F)C(=O)/C(=C/c2ccccc2F)C1    Dose-dependent effect
CN1C/C(=C\c2ccc(F)c(F)c2)C(=O)/C(=C/c2ccc(F)c(F)c2)C1    Dose-dependent effect
CCN1C/C(=C\c2c(F)cc(F)cc2F)C(=O)/C(=C/c2c(F)cc(F)cc2F)C1    Dose-dependent effect
CCN1C/C(=C\c2ccc(S(F)(F)(F)(F)F)cc2)C(=O)/C(=C/c2ccc(S(F)(F)(F)(F)F)cc2)C1    Dose-dependent effect
CN1C/C(=C\c2cc(F)c(F)cc2F)C(=O)/C(=C/c2cc(F)c(F)cc2F)C1    Dose-dependent effect
CN1C/C(=C\c2c(F)cc(F)cc2F)C(=O)/C(=C/c2c(F)cc(F)cc2F)C1    Dose-dependent effect
CCN1C/C(=C\c2cc(F)c(F)cc2F)C(=O)/C(=C/c2cc(F)c(F)cc2F)C1    Dose-dependent effect

Continue with the molecule presented below.
# query: Activity | item `O=C1/C(=C/c2ccc(S(F)(F)(F)(F)F)cc2)CSC/C1=C\c1ccc(S(F)(F)(F)(F)F)cc1` | system: KB-V1/Vbl
Dose-dependent effect

---

- Test system: Gallus gallus
- experimental protocol: Vascular disruptive activity in 6 days post fertilized chicken egg assessed as area covered by blood vessels at 10 nmol administered topically measured after 6 hrs by light microscopic analysis relative to control
- Type: functional
measured attribute: Activity

Completed entries (count: 2):
CN1C/C(=C\c2c(F)cc(F)cc2F)C(=O)/C(=C/c2c(F)cc(F)cc2F)C1    40%
O=C1/C(=C/c2ccccc2F)CNC/C1=C\c1ccccc1F    43%

Suppose we examine the molecule `CCN1C/C(=C\c2ccc(S(F)(F)(F)(F)F)cc2)C(=O)/C(=C/c2ccc(S(F)(F)(F)(F)F)cc2)C1` ; what Activity value has been reported?
67%

// provenance: ChEMBL document CHEMBL4043139
